The entries below come with measured activation values attached.
# Assay details: endothelial E-selectin upregulation by compounds – imaging, HUVEC, cherry-picked samples, dose response (AID 977605);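 further: signal is the share of imaged cells scored positive for E-selectin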
# Test context: HUVEC E-selectin immunostaining, at 19.5 µM (top of the series), percent of TNF-alpha response over vehicle

Mol: C[C@@H]1CN([C@H](C)CO)C(=O)c2cc(N(C)C)ccc2O[C@H]1CN(C)Cc1ccc(C(=O)O)cc1
activation, %: -0.039
//
Mol: CC(C)NC(=O)Nc1ccc2c(c1)CC(=O)N([C@H](C)CO)C[C@@H](C)[C@H](CN(C)Cc1ccc(Oc3ccccc3)cc1)O2
activation, %: -0.138
//
Mol: CCCNC(=O)N(C)C[C@@H]1Oc2ncc(C3=CCCC3)cc2C(=O)N([C@H](C)CO)C[C@H]1C
activation, %: 0.267
//
Mol: C[C@H](CO)N1C[C@H](C)[C@H](CN(C)Cc2ccc3c(c2)OCO3)Oc2ccc(NC(=O)Cn3cnnn3)cc2C1=O
activation, %: 2.56
//
Mol: COc1ccc(S(=O)(=O)N(C)C[C@@H]2Oc3ccc(NC(=O)c4ccncc4)cc3C(=O)N([C@H](C)CO)C[C@H]2C)cc1
activation, %: -0.082
//
Mol: C[C@@H]1CN([C@@H](C)CO)C(=O)c2cccc(NC(=O)Nc3ccc(F)cc3)c2O[C@@H]1CN(C)Cc1ccncc1
activation, %: -0.005
//
Mol: Cc1cc(C)cc(NC(=O)Nc2ccc(-n3ccc(C(F)(F)F)n3)cc2)c1
activation, %: 0.075
//
Mol: CC(C)N(CCC#N)C(=O)Nc1ccc2c(c1)CCO2
activation, %: -0.194
//
Mol: COc1ccc(NC(=O)N(C)C[C@H]2Oc3ccc(NC(=O)c4ccncc4)cc3CC(=O)N([C@H](C)CO)C[C@H]2C)cc1
activation, %: -0.01
//
Mol: C[C@@H]1CN([C@@H](C)CO)C(=O)Cc2cc(NC(=O)c3ccncc3)ccc2O[C@@H]1CN(C)C(=O)Nc1ccc(C(F)(F)F)cc1
activation, %: -0.044
//
Mol: Oc1cccc(Oc2ncc(C(F)(F)F)cc2Cl)c1
activation, %: -0.09
//
Mol: Cc1c(N(C)C(=O)COc2ccc3ccccc3c2)c(=O)n(-c2ccccc2)n1C
activation, %: -0.279
//
Mol: COc1ccc(CN(C)C[C@@H]2Oc3ccc(N(C)C)cc3CC(=O)N([C@@H](C)CO)C[C@@H]2C)cc1
activation, %: -0.012
//
Mol: C[C@@H]1CN([C@H](C)CO)C(=O)Cc2cc(NC(=O)CCN3CCOCC3)ccc2O[C@H]1CN(C)S(C)(=O)=O
activation, %: 0.606
//
Mol: C[C@@H]1CN([C@@H](C)CO)C(=O)Cc2cc(NC(=O)Nc3ccc(F)cc3)ccc2O[C@@H]1CN(C)Cc1ccncc1
activation, %: 10.4
//
Mol: CCCN(C)C[C@@H]1Oc2ncc(-c3ccccc3)cc2C(=O)N([C@H](C)CO)C[C@@H]1C
activation, %: -0.269
//
Mol: Cc1[nH]c(=O)c(C#N)cc1-c1ccncc1
activation, %: -0.055
